system: 186277-243-T-J2-PDC complex spheroids, viability; assay: Anticancer human tumor 186277-243-T-J2-PDC patient-derived colon adenocarcinoma cell line growth inhibition [RAS]; settings: second compound 0.003 µM; first compound 1 µM; stronger effect = lower value;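 further: spheroids exposed to compounds for 7 days before viability read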
measurement_type: viability, T/C (%)
Unit % implied. Number only.

Some compounds with recorded viability, T/C:
[
  {
    "compound": "CC1(O)CCCC1n1c(=O)c(C(F)F)cc2cnc(NC3CCN(S(C)(=O)=O)CC3)nc21 (configuration not stated) + CCn1c(-c2cc(N3CCN(C)CC3)cnc2C(C)OC)c2c3cc(ccc31)-c1csc(n1)CC(NC(=O)C1CC1C)C(=O)N1CCCC(N1)C(=O)OCC(C)(C)C2",
    "measurement_type": "viability, T/C",
    "readout_units": "%",
    "result_number": 55.4
  },
  {
    "compound": "CC(=O)OC12COC1CC(O)C1(C)C(=O)C(O)C3=C(C)C(OC(=O)C(O)C(NC(=O)OC(C)(C)C)c4ccccc4)CC(O)(C(OC(=O)c4ccccc4)C21)C3(C)C (configuration not stated) + CCn1c(-c2cccnc2C(C)OC)c2c3cc(ccc31)N1CCOC(CC(NC(=O)C(C(C)C)N(C)C(=O)C3(F)CCN(C(=O)C#CC(C)(C)N(C)C)CC3)C(=O)N3CCCC(N3)C(=O)OCC(C)(C)C2)C1",
    "measurement_type": "viability, T/C",
    "readout_units": "%",
    "result_number": 4.41
  },
  {
    "compound": "C=CC(=O)Nc1cc(Nc2nccc(-c3cn(C)c4ccccc34)n2)c(OC)cc1N(C)CCN(C)C + CCn1c(-c2cc(N3CCN(C)CC3)cnc2C(C)OC)c2c3cc(ccc31)-c1csc(n1)CC(NC(=O)C1CC1C)C(=O)N1CCCC(N1)C(=O)OCC(C)(C)C2",
    "measurement_type": "viability, T/C",
    "readout_units": "%",
    "result_number": 15.8
  },
  {
    "compound": "C=CC(=O)N1CCN(c2nc(OCC3CCCN3C)nc3c(F)c(-c4nc(N)cc(C)c4C(F)(F)F)c(Cl)cc23)C(C)C1 (configuration not stated) + CCn1c(-c2cccnc2C(C)OC)c2c3cc(ccc31)N1CCOC(CC(NC(=O)C(C(C)C)N(C)C(=O)C3(F)CCN(C(=O)C#CC(C)(C)N(C)C)CC3)C(=O)N3CCCC(N3)C(=O)OCC(C)(C)C2)C1",
    "measurement_type": "viability, T/C",
    "readout_units": "%",
    "result_number": 111
  },
  {
    "compound": "CC(=O)OC12COC1CC(O)C1(C)C(=O)C(O)C3=C(C)C(OC(=O)C(O)C(NC(=O)OC(C)(C)C)c4ccccc4)CC(O)(C(OC(=O)c4ccccc4)C21)C3(C)C (configuration not stated) + CCn1c(-c2cc(N3CCN(C)CC3)cnc2C(C)OC)c2c3cc(ccc31)-c1csc(n1)CC(NC(=O)C1CC1C)C(=O)N1CCCC(N1)C(=O)OCC(C)(C)C2",
    "measurement_type": "viability, T/C",
    "readout_units": "%",
    "result_number": 3.44
  }
]

Just so you know, measured viability, T/C for C[C@@H](NC(=O)c1ncnc(N)c1Cl)c1ncc(C(=O)Nc2cc(C(F)(F)F)c(Cl)cn2)s1 + CCn1c(-c2cccnc2C(C)OC)c2c3cc(ccc31)N1CCOC(CC(NC(=O)C(C(C)C)N(C)C(=O)C3(F)CCN(C(=O)C#CC(C)(C)N(C)C)CC3)C(=O)N3CCCC(N3)C(=O)OCC(C)(C)C2)C1 came out at 90.1

Just so you know, measured viability, T/C for CC1(O)CCCC1n1c(=O)c(C(F)F)cc2cnc(NC3CCN(S(C)(=O)=O)CC3)nc21 (configuration not stated) + CCn1c(-c2cccnc2C(C)OC)c2c3cc(ccc31)N1CCOC(CC(NC(=O)C(C(C)C)N(C)C(=O)C3(F)CCN(C(=O)C#CC(C)(C)N(C)C)CC3)C(=O)N3CCCC(N3)C(=O)OCC(C)(C)C2)C1 came out at 93.2
